B1: glmS ribozyme (parent)
chain: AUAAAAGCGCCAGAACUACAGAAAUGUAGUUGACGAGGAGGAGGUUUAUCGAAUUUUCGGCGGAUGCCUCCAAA

variants of: B1; assay: self-cleavage kobs at 40 uM GlcN6P; higher = faster cleavage; RNA array; conditions: with glucosamine-6-phosphate
Variants at the floor of the assay were thinned out.
readoutLabel: self-cleavage kobs at 40 uM GlcN6P

Some solved cases for reference:
mutationnotation="G7A C10G C50U" result="< 1e-05 s⁻¹"
mutationnotation="A15G C67A C71U" result="7.86e-05 s⁻¹"
mutationnotation="G41U G66A" result="7.21e-05 s⁻¹"

Continue with the variant presented below.
Returns the measured self-cleavage kobs at 40 uM GlcN6P for the input variant. Input: A12C A15G
0.000302 s⁻¹
